Below: a set of entries, each annotated with reported protein stability index.
B1: SCARA5 (parent)
chain: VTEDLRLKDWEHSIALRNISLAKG

Variants of: B1
ASSAY NOTES: protein stability index of a GFP-peptide fusion (GPS, HEK-293T) (PSI 1-6); higher = more stable;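 also: lentivirally expressed fusions sorted by FACS into six bins by GFP to DsRed ratio, PSI derived from sequencing read proportions per bin multiplied by bin number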
MEASUREMENT SETUP: c terminus: a fixed tail appended
Just the number, please, no unit attached.

// below: answered variants
VTEDLRLKDWEHSIALLNISLAKG [R17L]: 1.8
VTEDLRQKDWEHSIALRNISLAKG [L7Q]: 3.63
VTEDLRLKDWEHSIALRNIELAKG [S20E]: 2.36
VTEDLRLTDWEHSIALRNISLAKG [K8T]: 3.27
VTETLRLKDWEHSIALRNISLAKG [D4T]: 3.03

Now let's try a different one.
Input: Provide only the value of recorded protein stability index for VTEDLRLKDWEHSIALRYISLAKG [N18Y]
Output: 1.95

Origin of values: the supplement of paper PMC10567573
